# assay-target: Cytochrome P450 1A2 (Homo sapiens) (UniProt P05177)
# Sequence (P05177 whole entry, looked up): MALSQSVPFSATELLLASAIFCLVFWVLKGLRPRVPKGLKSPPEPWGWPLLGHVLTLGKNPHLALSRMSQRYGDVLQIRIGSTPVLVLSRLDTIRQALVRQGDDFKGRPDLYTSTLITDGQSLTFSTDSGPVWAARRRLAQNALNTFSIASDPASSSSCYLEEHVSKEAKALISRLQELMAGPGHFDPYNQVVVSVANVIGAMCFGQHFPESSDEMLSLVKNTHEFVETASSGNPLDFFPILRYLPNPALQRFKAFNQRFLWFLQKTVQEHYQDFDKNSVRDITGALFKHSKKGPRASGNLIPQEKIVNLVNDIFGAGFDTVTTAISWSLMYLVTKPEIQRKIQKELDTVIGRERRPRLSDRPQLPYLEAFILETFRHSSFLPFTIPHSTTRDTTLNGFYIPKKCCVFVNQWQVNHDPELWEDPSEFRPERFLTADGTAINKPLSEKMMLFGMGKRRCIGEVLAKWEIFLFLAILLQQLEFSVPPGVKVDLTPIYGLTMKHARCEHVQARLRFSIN
# test-name: Cytochrome P450 Family 1 Subfamily A Member 2 (CYP1A2) small molecule antagonists: luciferase reporter qHTS assay (AID 1671199); also: nearly all actives have a fitted effect of over 50% in size
# condition-description: P450-Glo CYP1A2 enzyme, luciferin luminescence, 1 h; series mostly up to 115 µM
Results filed as inconclusive are left out. Calls of active or inactive are those of the source. Calls follow the shape of the dose curve; as a rule, active = well fitted inhibition curve with a large enough effect in the repeat runs; inconclusive = weak or mixed curves; inactive = no such curve, though single readings can be large or run the other way.
Outcomes: t = active, f = inactive

1) Cc1occc1S	f
2) CCCCCC/C=C/C=O	f
3) CCN1CCC[C@H]1CNC(=O)c1c(OC)ccc(Br)c1OC	f
4) C[C@@H](C1=C(CCN(C)C)Cc2ccccc21)c1ccccn1	f
5) CC(=O)CC(=O)c1ccccc1	t
6) N[C@H]1C(O)O[C@H](CO)[C@H](O)[C@@H]1O (some centres not stated)	f
7) CC(O)C1CCCCC1 (configuration not stated)	f

###

# test-name: A CellTox Green Cytotoxicity Assay to monitor cytotoxicity in HepG2 cells - 24 hour (AID 1224878); also: nearly all actives have a fitted effect of over 45% in size
# condition-description: CellTox Green fluorescence; series mostly up to 76.8 µM
Records with an inconclusive call do not appear. Calls of active or inactive are those of the source. Calls come from the whole dose curve; as a rule, active = well fitted activation curve with a large enough effect in the repeat runs; inconclusive = weak or mixed curves; inactive = flat fitted curve, though single readings scatter.
Outcomes: Y = active, N = inactive

1. CC(=O)O[C@@H]1C(=O)O[C@@H]2[C@H]1OC(=O)[C@@H]2OC(C)=O	N
2. CCCCCCc1ccc(N)cc1	Y
3. NC1CCN(c2nc3c(cc2F)c(=O)c(C(=O)O)cn3-c2ccc(F)cc2F)C1 (stereo not drawn)	N
4. CC(C(=O)O)c1ccc(C(=O)c2ccccc2)s1 (stereo not drawn)	N
5. CCOC(=O)C1=NN(c2ccccc2)C(=O)C1	N
6. CCOc1nc2cccc(C(=O)O)c2n1Cc1ccc(-c2ccccc2-c2nn[nH]n2)cc1	N
7. NCCCOCCOCCOCCCN	N
8. CCN1CCC[C@H]1CNC(=O)c1c(OC)ccc(Br)c1OC	N
9. N#CCCNCCC#N	N
10. Nc1cnn([C@@H]2O[C@H](CO)[C@@H](O)[C@H]2O)c(=O)n1	N
11. Cc1nc2ccccc2n1Cc1ccc(Cl)cc1	N
12. CC(=O)Nc1ccc(/C=N/NC(N)=S)cc1	N
13. CC(C)CCCCCCOC(=O)c1ccc(C(=O)OCCCCCCC(C)C)c(C(=O)OCCCCCCC(C)C)c1	N
14. O=[N+]([O-])c1cccc(Cl)c1Cl	N
15. Cl/C(=C\n1cncn1)c1ccc(Cl)cc1Cl	N
16. CC(=O)/C=C/C1C(C)=CCCC1(C)C (stereo not drawn)	N
17. NC(=S)N/N=C/c1cccnc1	N
18. Oc1ccc(Sc2ccc(O)cc2)cc1	N

###

# test-name: qHTS assay to identify small molecule antagonists of the sonic hedgehog signaling (Shh) pathway (AID 1259369); also: nearly all actives have a fitted effect of over 45% in size
# condition-description: NIH/3T3 Gli1-Luc reporter, Shh antagonist, luminescence 24 h; series mostly up to 92.4 µM
Records with an inconclusive call do not appear. Calls of active or inactive are those of the source. Calls come from the whole dose curve.
Outcomes: active, inactive

1. CCCCCOC(=O)COc1cc(N2C(=O)C3=C(CCCC3)C2=O)c(F)cc1Cl	inactive
2. C=C(C)C(=O)OC(C)C	inactive
3. COCCCCCCCCOCCC[Si](C)(O[Si](C)(C)C)O[Si](C)(C)C	inactive
4. COCCOCCOCCOCCOC	inactive
5. COc1ccc(C(C)=O)cc1	inactive
6. CC(C)NCC(O)c1cc(O)cc(O)c1 (configuration not stated)	inactive
7. O=C(C(=O)c1ccc(Br)cc1)c1ccc(Br)cc1	active
